- assayed_system: Fab
- test_method_notes: static binding capacity for Fab after 0.1 M NaOH for 24 h, relative to SBC of the same particles without alkali treatment
reported_endpoint: SBC retention ratio (%) after alkali treatment
Write the answer as a number in %, unit excluded.

Completed entries (count: 2):
binder	data_value
Recombinant immunoglobulin κ chain binding protein KBP1 (protein) KETPETPEEPKEEVTIRVNLIFADGKTQTATFKGTFEEATAEAYRYADLLAKVNGEYTADLEDGGYTINIKFAGKKETPETPEEPKEEVTIRVNLIFADGKTQTATFKGTFEEATAEAYRYADLLAKVNGEYTADLEDGGYTINIKFAGKKETPETPEEPKEEVTIRVNLIFADGKTQTATFKGTFEEATAEAYRYADLLAKVNGEYTADLEDGGYTINIKFAGKKETPETPEEPKEEVTIRVNLIFADGKTQTATFKGTFEEATAEAYRYADLLAKVNGEYTADLEDGGYTINIKFAGK	46
Recombinant type immunoglobulin κ chain binding protein KBP0 (protein) KETPETPEEPKEEVTIKVNLIFADGKTQTATFKGTFEEATAEAYRYADLLAKVNGEYTADLEDGGYTINIKFAGKKETPETPEEPKEEVTIKVNLIFADGKTQTATFKGTFEEATAEAYRYADLLAKVNGEYTADLEDGGYTINIKFAGKKETPETPEEPKEEVTIKVNLIFADGKTQTATFKGTFEEATAEAYRYADLLAKVNGEYTADLEDGGYTINIKFAGKKETPETPEEPKEEVTIKVNLIFADGKTQTATFKGTFEEATAEAYRYADLLAKVNGEYTADLEDGGYTINIKFAGK	39

As a next step, examine the binder that follows.
Per the record, Recombinant immunoglobulin κ chain binding protein KBP5 (protein) KETPETPEEPKEEVTIKVNLIFADGKTQTATFKGTFEEATAEAYRYADLLAKVQGEYTADLEDGGYTINIKFAGKKETPETPEEPKEEVTIKVNLIFADGKTQTATFKGTFEEATAEAYRYADLLAKVQGEYTADLEDGGYTINIKFAGKKETPETPEEPKEEVTIKVNLIFADGKTQTATFKGTFEEATAEAYRYADLLAKVQGEYTADLEDGGYTINIKFAGKKETPETPEEPKEEVTIKVNLIFADGKTQTATFKGTFEEATAEAYRYADLLAKVQGEYTADLEDGGYTINIKFAGK has SBC retention ratio (%) after alkali treatment of 51

The values you see were collected from patent US20210163545A1.
